Molecular target: Elastase from human neutrophils (Homo sapiens, UniProt P08246)
Sequence (P08246 30-267): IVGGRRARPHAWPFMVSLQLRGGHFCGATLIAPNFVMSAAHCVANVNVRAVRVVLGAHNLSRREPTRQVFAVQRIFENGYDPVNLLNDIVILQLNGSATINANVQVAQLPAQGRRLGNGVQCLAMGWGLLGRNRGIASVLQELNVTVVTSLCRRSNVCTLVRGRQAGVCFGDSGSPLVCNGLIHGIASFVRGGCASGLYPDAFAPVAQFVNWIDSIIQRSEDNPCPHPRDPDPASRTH
Experiment: Enzymatic assay, elastase
Conditions: at 100 μM (stated in cell instead of IC50)
Where a SMILES comes first, the peptide text is derived from it.
parameter: Elastase at 100 μM %
Units required after the number.

{"columns": ["molecule", "Elastase at 100 μM %"],
 "data": [
  ["CCCC[C@@H]1NC(=O)[C@H](CCCNC(=N)N)NC(=O)[C@@H]2CCCN2C(=O)[C@H]2CCCN2C(=O)[C@H](Cc2ccccc2)NC(=O)[C@H](CCCC)NC(=O)[C@H]([C@@H](C)CC)NC(=O)[C@@H]2CCCN2C(=O)[C@@H]2CCCN2C(=O)[C@H](CC(=O)O)NC(=O)[C@H](CO)NC(=O)[C@H](CCCCN)NC(=O)[C@H]([C@@H](C)O)NC1=O [Ex. 8] (HELM PEPTIDE1{R.[Nle].T.K.S.D.P.P.I.[Nle].F.[dP].P}$PEPTIDE1,PEPTIDE1,1:R1-13:R2$$$V2.0)", "0.8 at %"]
]}

--- query ---
Query block: Fill in the blank: the reported Elastase at 100 μM % of CC[C@H](C)[C@@H]1NC(=O)[C@@H]2CCCN2C(=O)[C@@H]2CCCN2C(=O)[C@H](CC(=O)O)NC(=O)[C@H](CO)NC(=O)[C@H](CCCCN)NC(=O)[C@H]([C@@H](C)O)NC(=O)[C@H](CCC(=O)O)NC(=O)[C@H](CCCNC(=N)N)NC(=O)[C@@H]2CCCN2C(=O)[C@H]2CCCN2C(=O)[C@H](Cc2ccccc2)NC(=O)[C@H](CCCNC(=N)N)NC1=O [Ex. 7] (HELM PEPTIDE1{R.E.T.K.S.D.P.P.I.R.F.[dP].P}$PEPTIDE1,PEPTIDE1,1:R1-13:R2$$$V2.0) is ____.
Result block: 1.5 at %
